assayInfo: Quantitative High-Throughput drug screen in 47 multiple myeloma cell lines against the NCATS MIPE library collection: NCIH929_DSMZ cell viability assay (AID 1918978); note: nearly all actives have a fitted effect of over 35% in size
setupConditions: NCI-H929 myeloma viability, CellTiter-Glo ATP, 48 h; series mostly up to 45.8 µM
Records with an inconclusive call do not appear. Calls of active or inactive are those of the source. Calls come from the whole dose curve; as a rule, active = well fitted cell-killing curve with a large enough effect; inconclusive = small, poorly fitted or top-dose-only effect; inactive = no such curve, though single readings can be large or run the other way.
Your response should consist of one outcome taken from active, inactive

Here's what some known entries look like.
{"columns": ["structure", "group"],
 "data": [
  ["COc1cc2nc(-c3cc(F)ccc3O)nc(N[C@@H]3CNC[C@@H]3C(C)(C)O)c2cc1OC", "active"],
  ["N[C@@H](CC(=O)N1CCn2c(nnc2C(F)(F)F)C1)Cc1cc(F)c(F)cc1F", "inactive"],
  ["CON(C)C(=O)N1N=C(c2cc(F)ccc2F)S[C@]1(CCCN)c1ccccc1", "inactive"],
  ["C[C@]12CC[C@@H]3c4ccc(O)cc4CC[C@H]3[C@H]1[C@@H](O)[C@@H](O)[C@H]2O", "inactive"]
]}

Consider now this further compound.
Could you please tell me the result logged for `CN(C)CCOc1ccc(C(=C(CCCl)c2ccccc2)c2ccccc2)cc1` in this assay?
inactive

Entry source: PubChem BioAssay (NCATS)
